# Tested on: hamsters fed a high cholesterol diet
# assay_remarks: Measurement of lipid lowering effect in hamsters fed a high cholesterol diet
# Assay type: in vivo, Male Golden Syrian hamsters
# experimental_setup: Mesocricetus auratus, po, 168 h, dose 0.1 mg/kg, gavage once daily, 7 days; read-out: serum TG lowering effect (serum TG lowering rate)
quantity_kind: inhibition in vivo at 0.1 mg/kg

- Cc1cc(O)ccc1[C@@H]1[C@@H](SC[C@H](O)c2ccc(F)cc2)C(=O)N1c1ccc(-c2cncnc2)cc1: ≥ 20%
- O=C1[C@H](SC[C@H](O)c2ccc(F)cc2)[C@@H](c2ccc(O)cc2O)N1c1ccc(-c2cncc(Cl)c2)cc1: ≥ 20%
- O=C1[C@H](SC[C@H](O)c2ccccc2F)[C@@H](c2ccc(O)cc2)N1c1ccc(-c2cccnc2)cc1: ≥ 20%
- CC(=O)c1cncc(-c2ccc(N3C(=O)[C@H](SC[C@H](O)c4ccc(F)cc4)[C@H]3c3ccc(O)cc3)cc2)c1: ≥ 20%
- O=C1[C@H](SCCc2ccc(F)cc2)[C@@H](c2ccc(O)cc2)N1c1ccc(-c2cccnc2)cc1: ≥ 20%
- O=C1[C@H](SC[C@H](O)c2ccc(F)cc2)[C@@H](c2ccc(O)cc2)N1c1ccc(-c2ccc(C(F)(F)F)cn2)cc1: ≥ 20%
- COc1cc(N2C(=O)[C@H](SC[C@H](O)c3ccc(F)cc3)[C@H]2c2ccc(O)cc2)ccc1-c1cccnc1: ≥ 20%
- O=C1[C@H](SC[C@H](O)c2ccc3occc3c2)[C@@H](c2ccc(O)cc2)N1c1ccc(-c2cccnc2)cc1: ≥ 20%
- N#Cc1cncc(-c2ccc(N3C(=O)[C@H](SC[C@H](O)c4ccc(Cl)cc4)[C@H]3c3ccc(O)cc3)cc2)c1: ≥ 20%
- Cc1cc(O)ccc1[C@@H]1[C@@H](SC[C@H](O)c2ccc(F)cc2)C(=O)N1c1ccc(-c2cncc(C(F)(F)F)c2)cc1: ≥ 20%
- CCNC(=O)c1cncc(-c2ccc(N3C(=O)[C@H](SC[C@H](O)c4ccc(F)cc4)[C@H]3c3ccc(O)cc3)cc2)c1: ≥ 20%
- Cc1ccncc1-c1ccc(N2C(=O)[C@H](SC[C@H](O)c3ccc(F)cc3)[C@H]2c2ccc(O)cc2)cc1: ≥ 20%
- O=C1[C@H](SC[C@H](O)c2ccc(F)cc2)[C@@H](c2ccc(O)cc2)N1c1ccc(-c2cncc(C(F)(F)F)c2)cc1: ≥ 20%
- N#Cc1ncc(-c2ccc(N3C(=O)[C@H](SC[C@H](O)c4ccc(F)cc4)[C@H]3c3ccc(O)cc3)cc2)cn1: ≥ 20%
- N#Cc1ccc(-c2ccc(N3C(=O)[C@H](SC[C@H](O)c4ccc(Cl)cc4)[C@H]3c3ccc(O)cc3)cc2)cn1: ≥ 20%
- O=C1[C@H](SC[C@H](O)c2ccc(F)cc2)[C@@H](c2ccc(O)cc2)N1c1ccc(-c2cccnc2Cl)cc1: ≥ 20%
- O=C1[C@H](SC[C@H](O)c2ccc(F)cc2)[C@@H](c2ccc(O)cc2)N1c1ccc(-c2cncc(F)c2)cc1: ≥ 20%
- O=C1[C@H](SC[C@H](O)c2ccc(F)cc2)[C@@H](c2ccc(O)cc2)N1c1ccc(-c2ncc(F)cc2F)cc1: ≥ 20%
- O=C1[C@H](SC[C@H](O)c2ccc(F)cc2)[C@@H](c2ccc(O)cc2Cl)N1c1ccc(-c2cccnc2)cc1: ≥ 20%
- COc1ccc(-c2ccc(N3C(=O)[C@H](SC[C@H](O)c4ccc(F)cc4)[C@H]3c3ccc(O)cc3)cc2)cn1: ≥ 20%
- Cc1cncc(-c2ccc(N3C(=O)[C@H](SC[C@H](O)c4ccc(F)cc4)[C@H]3c3ccc(O)cc3O)cc2)c1: ≥ 20%
- COc1ncccc1-c1ccc(N2C(=O)[C@H](SC[C@H](O)c3ccc(F)cc3)[C@H]2c2ccc(O)cc2)cc1: ≥ 20%
- O=Cc1cc(-c2ccc(N3C(=O)[C@H](SC[C@H](O)c4ccc(F)cc4)[C@H]3c3ccc(O)cc3)cc2)cs1: ≥ 20%
- O=C1[C@H](SC[C@H](O)c2ccc(F)cc2)[C@@H](c2ccc(O)cc2)N1c1ccc(-c2cncnc2)cc1: ≥ 20%
- N#Cc1ccc(-c2ccc(N3C(=O)[C@H](SC[C@H](O)c4ccc(F)cc4)[C@H]3c3ccc(O)cc3)cc2)cn1: ≥ 20%
- O=C1[C@H](SC[C@H](O)c2ccc(Cl)cc2)[C@@H](c2ccc(O)cc2)N1c1ccc(-c2cccnc2)cc1: ≥ 20%
- O=C1[C@H](SC[C@H](O)c2ccc(Cl)s2)[C@@H](c2ccc(O)cc2)N1c1ccc(-c2cccnc2)cc1: ≥ 20%
